All figures here come from patent US8178548B2.

# ASSAYED SYSTEM: HCV polymerase 1A (Δ21 NS5B, H77) (Hepatitis C virus genotype 1a, UniProt P27958)
# Construct: 20 to 50 nM Δ21 NS5B
# Sequence (P27958 2421-2990, stated change not applied): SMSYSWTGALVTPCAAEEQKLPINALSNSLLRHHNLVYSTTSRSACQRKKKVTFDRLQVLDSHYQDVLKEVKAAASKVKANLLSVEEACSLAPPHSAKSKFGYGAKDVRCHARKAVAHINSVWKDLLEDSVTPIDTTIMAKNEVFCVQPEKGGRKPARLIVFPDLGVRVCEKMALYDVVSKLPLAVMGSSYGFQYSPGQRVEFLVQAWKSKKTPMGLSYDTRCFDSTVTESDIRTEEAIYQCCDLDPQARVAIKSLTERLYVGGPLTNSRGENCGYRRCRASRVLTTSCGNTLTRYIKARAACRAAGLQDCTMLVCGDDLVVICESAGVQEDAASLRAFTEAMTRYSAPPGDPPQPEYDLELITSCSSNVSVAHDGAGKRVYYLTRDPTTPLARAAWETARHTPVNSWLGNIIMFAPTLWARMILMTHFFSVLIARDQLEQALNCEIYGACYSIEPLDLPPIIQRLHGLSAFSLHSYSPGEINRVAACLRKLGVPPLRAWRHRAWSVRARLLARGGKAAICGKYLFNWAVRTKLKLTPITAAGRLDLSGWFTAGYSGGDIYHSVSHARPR
# MEASUREMENT NOTES: biochemical
pIC50: −log10 of the molar value.
Entries and their measured pIC50 follow.

Can you look up the measured pIC50 of CO/N=C/c1cc(NS(C)(=O)=O)ccc1/C=C/c1cc(-n2ccc(=O)[nH]c2=O)cc(C(C)(C)C)c1OC for me? > 8.00

Also COc1c(/C=C/c2ccc(NS(C)(=O)=O)cc2C=NO)cc(-n2ccc(=O)[nH]c2=O)cc1C(C)(C)C ? > 8.00

Also COc1c(/C=C/c2ccc(NS(C)(=O)=O)cc2)cc(-n2cc(Cl)c(=O)[nH]c2=O)cc1C(C)(C)C ? > 8.00

Also COc1c(/C=C/c2ccc(NS(C)(=O)=O)cc2CO)cc(-n2ccc(=O)[nH]c2=O)cc1C(C)(C)C ? > 8.00

// next entry
Can you look up the measured pIC50 of COc1c(Br)cc(-n2ccc(=O)[nH]c2=O)cc1/C=C/c1ccc(NS(C)(=O)=O)cc1 for me? 6.00 to 7.00
